# Tested on: RARb:RXRa (NR concentration 270 nM, RXRa partner concentration 90 nM)
# Assay Text: PBM binding z-score (relative to random genomic background probes); higher = stronger binding; sequences stand for … in GC…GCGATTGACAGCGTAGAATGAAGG
Item-by-item account of PBM binding z-score
Lab note: record the figure alone, no unit after it.

CAAACTAGGTCAAGAGGTTAAAGTCCGCTTCCCG    4.47

Ask: Any idea what PBM binding z-score was measured for CCGAGTAGGTTATGAGGCATTCAGGCAACGGTGA ?
Reply: 0.501

Ask: Entry under review: CCTACGGGGCCAAAAAGGTCATTGATGCCGATAA . Reported PBM binding z-score?
Reply: 4.26

Ask: Which measured PBM binding z-score value corresponds to ACTCGGAGGACAAAGGTCAGAGATACGCCAGTGA ?
Reply: 4.56

Ask: For the sequence shown here, AGAAGGAGGTTATACGTAGATCAGGGAAGAAAGT , give the reported PBM binding z-score.
Reply: 1.34

Ask: Fill blank: measured PBM binding z-score of the sequence GATACAGGGTCAAGGCCCGAGTACGCGTATTGAT is ____.
Reply: 4.31

Ask: I'd like to know its PBM binding z-score. The sequence in question is TCACACAGGTGAAGGTAACTCAGGTACGCAGTCG
Reply: 1.15

Ask: Returns the measured PBM binding z-score for the input sequence. Input: TAGCCTAGGTCAAGGGCCAGTATACCACGCGAAC
Reply: 3.96

Ask: Query: PBM binding z-score; subject: TCTCTGAGGACACGAAAGGTCAGAGCTCGACATC
Reply: 4.2

Ask: Need PBM binding z-score of CCGACTGGGGCAAGGTTACCTTAACGCACAGCCA , thanks.
Reply: 1.63

Ask: Quick one: PBM binding z-score for CCCTACGGGTCAAGGTTATAGCACGGGTGGTACG ?
Reply: 4.07

Ask: Could you share which PBM binding z-score value was measured for CGTCCAAGGTCAATGCTAGGTAAGTGAAAGCATT ?
Reply: 4.88

Ask: Requested read-out: PBM binding z-score. Entry: GTATCAAGGTGAATAGGTCGTTGATGAGTAGGCG
Reply: 2.14

Ask: Quick check: PBM binding z-score of ATATGTAGGTTATCGGGTCACTCAGTTTGCGCAT ?
Reply: 2.68

Ask: Which PBM binding z-score is listed for AGAAAGAGGGCAATGAGTTGATAGCACGGGTGGC ?
Reply: 2.46

Ask: # input sequence: CCTCGGAGGACAACAGGTGGTCAGAGCTGCCAGA ; wanted: its PBM binding z-score
Reply: 1.04

Ask: Recorded PBM binding z-score of CAAACTAGGTCAAGGTCAAAGTGGGTTTGTGCCA , please.
Reply: 5.14

Ask: Name the reported PBM binding z-score value associated with the sequence ATATGTAGGTTAGCTGTGGTCATTCAGACTAGGC
Reply: 1.2

Ask: Suppose we examine the sequence CCGACTGGTGCAGAAAGGTTACCATACCATCCGG ; what PBM binding z-score value has been reported?
Reply: 1.43

----------
# Test system: RARb homodimer (NR concentration 270 nM)
# Assay Text: PBM binding z-score (relative to random genomic background probes); higher = stronger binding; sequences stand for … in GC…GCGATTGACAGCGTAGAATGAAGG
In this section we review reported PBM binding z-score values for a set of sequences.
The answer should be a number; do not append a unit.

The cases that follow already have their PBM binding z-score on record.
TCTATTAGTTGAAGGGCCACCGACGAGTCCGTTT    0.971
CGTCAAAGTGCAAGGTAACGTAACAGAAAGCAGC    0.846
AGAATGAGGTTGTACGTAGATCAGGGAAGAAAGT    0.561
ATCTCTTGGTAAAAGTTCAGTGAATCCCGAGGAT    2.43

Ask: // lookup PBM binding z-score for ATCTCTAGGTAAGACTCAATTCAGTGAAGAACGC
Reply: 0.0312

Ask: Query (sequence): CGTCAAAGTTCAAGGTAACGTACCAGAAAGCAGC ; field requested: PBM binding z-score
Reply: 3.97
